biological target: Ae. aegypti NPYLR1 (Aedes aegypti, UniProt U5N0U1); assay: HEK293T cell-based calcium imaging assay, Ae. aegypti NPYLR1; conditions: HEK293T cells transiently co-transfected with receptor and murine Gqα15, Fura-2 calcium imaging; eight responding cells per plate, three independent transfections; normalized to highest response
Sequence (U5N0U1 1-529): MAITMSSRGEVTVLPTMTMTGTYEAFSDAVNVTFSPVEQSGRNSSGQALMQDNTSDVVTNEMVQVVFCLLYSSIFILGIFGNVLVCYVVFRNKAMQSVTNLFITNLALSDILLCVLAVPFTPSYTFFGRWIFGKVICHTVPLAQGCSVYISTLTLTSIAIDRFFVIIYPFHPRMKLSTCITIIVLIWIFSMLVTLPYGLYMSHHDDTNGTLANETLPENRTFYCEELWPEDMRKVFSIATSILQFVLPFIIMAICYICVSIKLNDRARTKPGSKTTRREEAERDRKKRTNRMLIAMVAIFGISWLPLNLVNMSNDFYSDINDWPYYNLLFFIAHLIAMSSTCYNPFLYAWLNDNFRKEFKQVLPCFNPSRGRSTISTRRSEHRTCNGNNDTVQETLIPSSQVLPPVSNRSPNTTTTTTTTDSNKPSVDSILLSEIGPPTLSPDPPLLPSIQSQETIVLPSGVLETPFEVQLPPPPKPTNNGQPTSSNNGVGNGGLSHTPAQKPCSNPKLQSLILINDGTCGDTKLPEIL
Square brackets hold non-standard residues; d marks the D form. Peptide text beside a SMILES is read from it. Hyp = O=C(O)[C@@H]1C[C@@H](O)CN1; pGlu = O=C1CC[C@@H](C(=O)O)N1
reported_property: log10 EC50 (log10 of the value in µM)

molecule	log10 EC50
CC(C)C[C@H](NC(=O)[C@H](CO)NC(=O)[C@@H]1CCCN1C(=O)[C@@H]1CCCN1C(=O)[C@H](CCCNC(=N)N)NC(=O)[C@@H]1CCC(=O)N1)C(=O)N[C@@H](CCCCN)C(=O)N[C@H](C(=O)N[C@@H](CCCNC(=N)N)C(=O)N[C@@H](Cc1ccccc1)C(N)=O)[C@@H](C)O [Head Peptide-III] ([pGlu]RPPSLKTRF-NH2)	-0.02
CC(C)C[C@H](NC(=O)[C@H](CO)NC(=O)[C@@H]1C[C@@H](O)CN1C(=O)[C@@H]1CCCN1C(=O)[C@H](CCCNC(=N)N)NC(=O)[C@@H]1CCC(=O)N1)C(=O)N[C@@H](CCCCN)C(=O)N[C@H](C(=O)N[C@@H](CCCNC(=N)N)C(=O)N[C@@H](Cc1ccccc1)C(N)=O)[C@@H](C)O [Head Peptide-I] ([pGlu]RP[Hyp]SLKTRF-NH2)	-0.08
CC(C)C[C@H](NC(=O)[C@H](CCCNC(=N)N)NC(=O)[C@H](CCC(N)=O)NC(=O)[C@H](CO)NC(=O)[C@@H]1CCCN1C(=O)[C@H](C)N)C(=O)N[C@@H](CCCNC(=N)N)C(=O)N[C@@H](Cc1c[nH]c2ccccc12)C(N)=O [sNPF-3] (H-APSQRLRW-NH2; N-terminus assumed)	-1.12
CC(C)C[C@H](NC(=O)[C@H](CCCNC(=N)N)NC(=O)[C@H](CC(C)C)NC(=O)[C@H](CO)NC(=O)[C@@H]1CCCN1C(=O)[C@H](CO)NC(=O)[C@H](CCCNC(=N)N)NC(=O)[C@@H](NC(=O)[C@H](C)NC(=O)[C@@H](N)CCCCN)C(C)C)C(=O)N[C@@H](CCCNC(=N)N)C(=O)N[C@@H](Cc1ccccc1)C(N)=O [sNPF-1] (H-KAVRSPSLRLRF-NH2; N-terminus assumed)	-1.26
CC(C)C[C@H](NC(=O)[C@H](CCCNC(=N)N)NC(=O)[C@H](CC(C)C)NC(=O)[C@H](CCC(N)=O)NC(=O)[C@@H]1CCCN1C(=O)[C@H](C)N)C(=O)N[C@@H](CCCNC(=N)N)C(=O)N[C@@H](Cc1ccccc1)C(N)=O [sNPF-2+4] (H-APQLRLRF-NH2)	-1.46
CC(C)C[C@H](NC(=O)[C@H](CCCNC(=N)N)NC(=O)[C@H](CC(C)C)NC(=O)[C@H](CO)NC(=O)[C@@H]1CCCN1C(=O)[C@@H](N)CO)C(=O)N[C@@H](CCCNC(=N)N)C(=O)N[C@@H](Cc1ccccc1)C(N)=O [sNPF-1(4-11)] (H-SPSLRLRF-NH2)	-1.36
